TGI for assorted molecules
system: OVCAR-3 ovarian; experiment: NCI tumour cell line growth inhibition, 48 h

{"columns": ["Molecule", "Target Desc", "Result Operator", "TGI, µM"],
 "data": [
  ["COC(=O)C1=Nc2c(C)nn(-c3ccccc3)c2N=C(c2ccc([N+](=O)[O-])cc2)C1", "OVCAR-3 ovarian", ">", 10],
  ["C=CCOCCCCC(C(C)=O)C(=O)OC (stereo unspecified)", "OVCAR-3 ovarian", ">", 100],
  ["Cn1c2ccccc2c2c(-c3ccccc3)[n+]3ccncc3nc21", "OVCAR-3 ovarian", ">", 100],
  ["O=C(/C=C/c1c(O)ccc2ccccc12)c1cccc(O)c1", "OVCAR-3 ovarian", ">", 100],
  ["CC1=CC(=Nc2ccc(N(CCCl)CCCl)cc2)C=C(C)C1=O", "OVCAR-3 ovarian", "=", 3.13],
  ["O=C(N/N=C/c1ccccc1O)c1ccccc1Nc1ccnc(C(F)(F)F)c1", "OVCAR-3 ovarian", "=", 22.6],
  ["CN(C)CCn1c(=O)c2ccc(NCCCN(C)CCCNc3ccc4c(=O)n(CCN(C)C)c(=O)n5c6ccc([N+](=O)[O-])cc6c(=O)c3c45)c3c(=O)c4cc([N+](=O)[O-])ccc4n(c1=O)c23", "OVCAR-3 ovarian", "=", 1.31],
  ["N#Cc1cc2c(cc1Cl)Sc1nccn1S2(=O)=O", "OVCAR-3 ovarian", "=", 2.13],
  ["NC1CNC(=O)c2c(Cl)sc(Cl)c21 (stereo unspecified)", "OVCAR-3 ovarian", ">", 100],
  ["C=CC(=O)N1CC2(CCN(c3nc(OC4CCN(CCCOC)CC4)nc4c(OCC(F)(F)F)c(-c5c(C)ccc6[nH]ncc56)c(C5CC5)cc34)CC2)C1", "OVCAR-3 ovarian", "=", 5.28],
  ["O=C1C=C(c2ccccc2)O/C1=C/C(=O)c1ccc(Cl)cc1", "OVCAR-3 ovarian", "=", 31.9]
]}
